- TESTED ON: OATP1B3 (Homo sapiens, UniProt Q9NPD5)
- Sequence (Q9NPD5 whole entry): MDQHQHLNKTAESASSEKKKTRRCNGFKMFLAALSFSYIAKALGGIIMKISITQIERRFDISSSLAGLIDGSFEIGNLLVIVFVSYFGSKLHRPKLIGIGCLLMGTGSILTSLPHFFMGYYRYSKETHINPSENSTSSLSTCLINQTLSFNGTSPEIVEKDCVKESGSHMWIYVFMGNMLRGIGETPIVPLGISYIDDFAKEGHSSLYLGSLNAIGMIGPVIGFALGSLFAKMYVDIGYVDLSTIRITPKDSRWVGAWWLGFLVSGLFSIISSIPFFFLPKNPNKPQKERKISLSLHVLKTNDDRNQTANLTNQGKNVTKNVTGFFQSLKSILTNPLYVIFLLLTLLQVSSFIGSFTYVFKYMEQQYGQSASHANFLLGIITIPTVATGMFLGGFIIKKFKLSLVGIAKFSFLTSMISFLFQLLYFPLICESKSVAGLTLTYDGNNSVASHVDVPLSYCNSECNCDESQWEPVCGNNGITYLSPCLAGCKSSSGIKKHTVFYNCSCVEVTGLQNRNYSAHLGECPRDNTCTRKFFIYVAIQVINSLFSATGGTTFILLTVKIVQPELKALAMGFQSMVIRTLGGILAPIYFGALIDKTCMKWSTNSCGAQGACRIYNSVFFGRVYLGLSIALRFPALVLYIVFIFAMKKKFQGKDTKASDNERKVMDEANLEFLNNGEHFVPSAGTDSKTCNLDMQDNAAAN
- PROTOCOL TEXT: Uptake into stable transfected OATP1B3 HEK 293 cells
- Assay type: cell-based
- CONDITION CONTEXT: 40 min incubation, relative to RC1 (Gd-EOB-DTPA)

COMPOUND	Uptake into OATP1B3-HEK 293 cells
CCOCCOCCOc1ccc(CC(C(=O)O)N2CCN(CC(=O)[O-])CCN(CC(=O)[O-])CCN(CC(=O)[O-])CC2)cc1.[Gd+3] (stereo not drawn) [Example 2]	56 % of RC1
O=C([O-])CN1CCN(CC(=O)[O-])CCN([C@H](Cc2ccc(OCC(F)(F)F)cc2)C(=O)O)CCN(CC(=O)[O-])CC1.[Gd+3] [Example 47]	19 % of RC1
CCCCOc1ccc(CCCC[C@@H](C(=O)O)N2CCN([C@@H](CO)C(=O)[O-])CCN([C@@H](CO)C(=O)[O-])CCN([C@@H](CO)C(=O)[O-])CC2)cc1.[Gd+3] [Example 9]	124 % of RC1
CCCC(C(=O)[O-])N1CCN(CC(=O)[O-])CCN(C(Cc2ccc(OCC)cc2)C(=O)O)CCN(CC(=O)[O-])CC1.[Gd+3] (stereo not drawn) [Example 29]	75 % of RC1
COCC(C(=O)O)N1CCN(CC(=O)[O-])CCN(C(Cc2ccc(OCC(F)(F)C(F)F)cc2)C(=O)[O-])CCN(CC(=O)[O-])CC1.[Gd+3] (stereo not drawn) [Example 45]	106 % of RC1
CCOCCOCCOCCOc1ccc(C[C@H](C(=O)O)N2CCN(CC(=O)[O-])CCN(CC(=O)[O-])CCN(CC(=O)[O-])CC2)cc1.[Gd+3] [Example 12]	24 % of RC1

---

Listed molecules paired with reported r1 human plasma
- PROTOCOL TEXT: Relaxivity measurements at 1.41 T in human plasma
- Type: physicochemical
- CONDITION CONTEXT: 37° C., normalized to Gd
REPORTED METRIC: r1 human plasma (L/mmol/s)

In [3]: df
Out[3]:
                                   molecule  reported_metric  reported
0  COCC(C(=O)O)N1CCN(CC(=O)[O-])CCN(C(Cc2ccc(OCC(F)(F)C(F)F)cc2)C(=O)[O-])CCN(CC(=O)[O-])CC1.[Gd+3] (centres unmarked)  r1 human plasma      11.4
1  CCOCCOc1ccc(CC(C(=O)O)N2CCN(CC(=O)[O-])CCN(C(COC)C(=O)[O-])CCN(CC(=O)[O-])CC2)cc1.[Gd+3] (centres unmarked)  r1 human plasma       7.5
2  CCOCCOCCOc1cc(CC(C(=O)O)N2CCN(CC(=O)[O-])CCN(CC(=O)[O-])CCN(CC(=O)[O-])CC2)cc(OCCOCCOCC)c1.[Gd+3] (centres unmarked)  r1 human plasma       7.8
3  CCCC(C(=O)[O-])N1CCN(CC(=O)[O-])CCN(C(Cc2ccc(OCC)cc2)C(=O)O)CCN(CC(=O)[O-])CC1.[Gd+3] (centres unmarked) [Example 29]  r1 human plasma       7.5
4  CCOCCOCCOc1ccc(CCCC(C(=O)O)N2CCN(C(CO)C(=O)[O-])CCN(C(CO)C(=O)[O-])CCN(C(CO)C(=O)[O-])CC2)cc1.[Gd+3] (centres unmarked)  r1 human plasma      10.1

---

- TESTED ON: OATP1B1 (Homo sapiens, UniProt Q9Y6L6)
- Sequence (Q9Y6L6 1-691): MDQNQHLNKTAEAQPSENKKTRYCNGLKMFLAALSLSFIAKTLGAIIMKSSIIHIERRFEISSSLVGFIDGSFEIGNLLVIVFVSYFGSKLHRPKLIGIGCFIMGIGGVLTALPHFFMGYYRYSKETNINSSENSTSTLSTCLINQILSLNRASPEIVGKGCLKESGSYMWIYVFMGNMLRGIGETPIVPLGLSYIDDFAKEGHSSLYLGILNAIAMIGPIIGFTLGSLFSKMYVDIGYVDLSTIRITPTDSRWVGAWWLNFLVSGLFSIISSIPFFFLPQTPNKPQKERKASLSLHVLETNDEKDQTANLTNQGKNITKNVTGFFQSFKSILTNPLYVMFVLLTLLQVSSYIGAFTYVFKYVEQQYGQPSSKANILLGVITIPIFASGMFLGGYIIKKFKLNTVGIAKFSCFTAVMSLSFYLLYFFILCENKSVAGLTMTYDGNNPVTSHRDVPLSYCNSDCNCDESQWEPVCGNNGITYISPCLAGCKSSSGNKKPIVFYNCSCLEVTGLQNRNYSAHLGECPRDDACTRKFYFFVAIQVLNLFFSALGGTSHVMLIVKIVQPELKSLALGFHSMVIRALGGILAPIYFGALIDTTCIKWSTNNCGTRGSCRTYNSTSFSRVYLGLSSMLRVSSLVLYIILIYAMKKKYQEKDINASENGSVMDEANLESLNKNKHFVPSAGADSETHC
- PROTOCOL TEXT: Uptake into stable transfected OATP1B1 HEK 293 cells
- Assay type: cell-based
- CONDITION CONTEXT: uptake into OATP1B1-HEK 293 cells

COMPOUND	Inhibition Rifampicine
CCCOc1ccc(CC(C(=O)O)N2CCN(CC(=O)[O-])CCN(CC(=O)[O-])CCN(CC(=O)[O-])CC2)cc1.[Gd+3] (stereo not drawn)	92 % inhibition
CCOc1ccc(CCOCC(C(=O)O)N2CCN(CC(=O)[O-])CCN(CC(=O)[O-])CCN(CC(=O)[O-])CC2)cc1.[Gd+3] (stereo not drawn)	92 % inhibition
CCCC(C(=O)[O-])N1CCN(CC(=O)[O-])CCN(C(Cc2ccc(OCC)cc2)C(=O)O)CCN(CC(=O)[O-])CC1.[Gd+3] (stereo not drawn) [Example 30]	90 % inhibition
CCOCCOCCOc1ccc(CCCC(C(=O)O)N2CCN(C(CO)C(=O)[O-])CCN(C(CO)C(=O)[O-])CCN(C(CO)C(=O)[O-])CC2)cc1.[Gd+3] (stereo not drawn)	88 % inhibition
CCOCCOCCOc1ccc(CCC[C@@H](C(=O)O)N2CCN([C@@H](CO)C(=O)[O-])CCN([C@@H](CO)C(=O)[O-])CCN([C@@H](CO)C(=O)[O-])CC2)cc1.[Gd+3]	91 % inhibition
CCOCCOc1ccc(CC(C(=O)O)N2CCN(CC(=O)[O-])CCN(C(CC)C(=O)[O-])CCN(CC(=O)[O-])CC2)cc1.[Gd+3] (single isomer, unassigned) [Example 7]	91 % inhibition
